system-name: acetylcholine esterase (AChE) (Mus musculus, UniProt P21836)
Construct: brain homogenate and serum of mouse were used as choline esterase enzyme sources; from tissue; host or cells: mouse brain homogenate
Sequence (P21836 32-614): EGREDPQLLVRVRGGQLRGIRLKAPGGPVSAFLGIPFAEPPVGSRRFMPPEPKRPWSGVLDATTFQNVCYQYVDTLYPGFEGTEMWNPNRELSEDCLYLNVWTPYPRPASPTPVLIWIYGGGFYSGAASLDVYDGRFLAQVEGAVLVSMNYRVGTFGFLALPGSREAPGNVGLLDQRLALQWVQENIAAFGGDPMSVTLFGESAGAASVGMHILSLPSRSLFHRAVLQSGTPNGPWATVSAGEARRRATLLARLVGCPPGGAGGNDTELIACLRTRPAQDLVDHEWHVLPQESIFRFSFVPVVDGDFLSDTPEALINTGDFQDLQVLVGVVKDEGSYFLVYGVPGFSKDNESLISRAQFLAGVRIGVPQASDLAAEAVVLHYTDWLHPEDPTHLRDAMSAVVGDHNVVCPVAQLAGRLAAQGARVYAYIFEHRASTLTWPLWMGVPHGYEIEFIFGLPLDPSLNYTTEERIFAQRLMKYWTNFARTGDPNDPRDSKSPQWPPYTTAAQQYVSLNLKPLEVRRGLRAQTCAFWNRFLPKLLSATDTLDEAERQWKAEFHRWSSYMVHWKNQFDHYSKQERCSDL
run-description: In vitro assay for choline esterase inhibition (Ellman method), acetylthiocholine substrate, mouse brain homogenate
Assay type: biochemical
applied-conditions: mouse brain homogenate, acetylthiocholine, absorbance at 415 nm; read-out: AChE inhibitory activity IC50
quantity-measured: log10(IC50) (log10 of the value in µM)
Scale: log10; quantity: IC50; unit before log: µM

Solved cases (2 shown):
# compound, quantity-measured, result
data = [
    ("O=C(NCCc1ccccc1)Oc1ccc2c(c1)CCN2Cc1ccccc1 [Example 16, 1-benzylindolin-5-yl phenethylcarbamate]", "log10(IC50)", 0.99),
    ("O=C(NCc1ccccc1)Oc1ccc2c(c1)CCN2Cc1ccccc1 [Example 15, 1-benzylindolin-5-yl benzylcarbamate]", "log10(IC50)", 0.26),
]

The value of log10(IC50) measured for the compound O=C(NCC1CCOC1)Oc1ccc2c(c1)CCN2Cc1ccccc1 (stereo not drawn) turned out to be 1.76

The value of log10(IC50) measured for the compound O=C(NC1CCCCC1)Oc1ccc2c(c1)CCN2Cc1ccccn1 turned out to be 0.34

The value of log10(IC50) measured for the compound CSCCCNC(=O)Oc1ccc2c(c1)CCN2Cc1ccccc1 turned out to be 0.80

The value of log10(IC50) measured for the compound COc1ccccc1CCNC(=O)Oc1ccc2c(c1)CCN2Cc1ccccc1 turned out to be 0.90

The value of log10(IC50) measured for the compound O=C(Nc1ccc2c(c1)OCO2)Oc1ccc2c(c1)CCN2Cc1ccccc1 turned out to be 1.04

The value of log10(IC50) measured for the compound CCCNC(=O)Oc1ccc2c(c1)CCN2Cc1ccccc1 [Example 114, 1-benzylindolin-5-yl n-propylcarbamate] turned out to be 0.72

The value of log10(IC50) measured for the compound O=C(NCCc1ccncc1)Oc1ccc2c(c1)CCN2Cc1ccccc1 turned out to be 1.15

----------
system-name: butyrylcholine esterase (BuChE) (Mus musculus, UniProt Q03311)
Construct: brain homogenate and serum of mouse were used as choline esterase enzyme sources; from tissue; host or cells: mouse serum
Sequence (Q03311 30-603): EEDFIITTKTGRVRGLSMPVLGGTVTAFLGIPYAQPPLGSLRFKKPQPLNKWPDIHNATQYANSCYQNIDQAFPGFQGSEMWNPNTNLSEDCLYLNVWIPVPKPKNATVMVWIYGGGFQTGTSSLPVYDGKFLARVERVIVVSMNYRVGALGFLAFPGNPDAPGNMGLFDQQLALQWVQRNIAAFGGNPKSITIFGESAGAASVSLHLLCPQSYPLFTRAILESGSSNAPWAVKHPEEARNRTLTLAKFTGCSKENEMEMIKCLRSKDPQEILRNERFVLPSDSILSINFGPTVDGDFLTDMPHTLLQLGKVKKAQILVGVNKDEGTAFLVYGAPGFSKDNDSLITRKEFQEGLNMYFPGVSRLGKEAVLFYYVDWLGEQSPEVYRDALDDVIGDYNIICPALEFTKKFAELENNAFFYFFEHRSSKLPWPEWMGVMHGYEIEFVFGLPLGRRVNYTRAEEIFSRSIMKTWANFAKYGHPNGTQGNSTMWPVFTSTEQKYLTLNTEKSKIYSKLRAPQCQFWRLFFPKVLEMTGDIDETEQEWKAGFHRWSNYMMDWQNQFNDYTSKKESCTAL
run-description: In vitro assay for choline esterase inhibition (Ellman method), butyrylthiocholine substrate, mouse serum
Format: biochemical
applied-conditions: selectivity for BuChE inhibition: IC50 (AchE)/IC50 (BuChE)
Quick list: Ratio AChE/BuChE per entry.

The value of Ratio AChE/BuChE measured for the compound CC(C)c1ccc(NC(=O)Oc2ccc3c(c2)CCN3Cc2ccccc2)cc1 turned out to be >180

The value of Ratio AChE/BuChE measured for the compound O=C(NCc1ccccc1)Oc1ccc2c(c1)CCN2Cc1ccccc1 [Example 15, 1-benzylindolin-5-yl benzylcarbamate] turned out to be 140

The value of Ratio AChE/BuChE measured for the compound COc1ccc(NC(=O)Oc2ccc3c(c2)CCN3Cc2ccccc2)cc1OC turned out to be >910

The value of Ratio AChE/BuChE measured for the compound CC(C)c1ccc(NC(=O)Oc2ccc3c(c2)CCN3CCC(C)(C)C)cc1 turned out to be >110

The value of Ratio AChE/BuChE measured for the compound CC(C)c1ccc(NC(=O)Oc2ccc3c(c2)CCN3Cc2c[nH]c3ccccc23)cc1 turned out to be >710

----------
Quick list: Ratio AChE/BuChE per entry.
system-name: butyrylcholine esterase (BuChE) (Mus musculus)
Construct: brain homogenate and serum of mouse were used as choline esterase enzyme sources; from tissue; host or cells: mouse serum
run-description: In vitro assay for choline esterase inhibition (Ellman method), butyrylthiocholine substrate, mouse serum
Assay type: biochemical
applied-conditions: selectivity for BuChE inhibition: IC50 (AchE)/IC50 (BuChE)

Solved cases (3 shown):
# compound, quantity-measured, result
rows = [
    ("COc1cc(CN2CCc3cc(OC(=O)Nc4ccc(C(C)C)cc4)ccc32)ccc1O [Example 67]", "Ratio AChE/BuChE", ">77"),
    ("CC(C)c1ccc(NC(=O)Oc2ccc3c(c2)CCN3CC2CCCCC2)cc1 [Example 75]", "Ratio AChE/BuChE", ">130"),
    ("CCCN(CCC)C(=O)CC1CN(Cc2ccccc2)c2ccc(OC(=O)Nc3ccc(C(C)C)cc3)cc21 (centres unmarked) [Example 161]", "Ratio AChE/BuChE", ">670"),
]

Pending compound:
The value of Ratio AChE/BuChE measured for the compound O=C(NCC1CCCCC1)Oc1ccc2c(c1)CCN2Cc1ccccc1 [Example 34] turned out to be >33000

----------
Quick list: pIC50 per entry.
system-name: acetylcholine esterase (AChE) (Mus musculus)
Construct: brain homogenate and serum of mouse were used as choline esterase enzyme sources; from tissue; host or cells: mouse brain homogenate
Sequence (P21836 32-614): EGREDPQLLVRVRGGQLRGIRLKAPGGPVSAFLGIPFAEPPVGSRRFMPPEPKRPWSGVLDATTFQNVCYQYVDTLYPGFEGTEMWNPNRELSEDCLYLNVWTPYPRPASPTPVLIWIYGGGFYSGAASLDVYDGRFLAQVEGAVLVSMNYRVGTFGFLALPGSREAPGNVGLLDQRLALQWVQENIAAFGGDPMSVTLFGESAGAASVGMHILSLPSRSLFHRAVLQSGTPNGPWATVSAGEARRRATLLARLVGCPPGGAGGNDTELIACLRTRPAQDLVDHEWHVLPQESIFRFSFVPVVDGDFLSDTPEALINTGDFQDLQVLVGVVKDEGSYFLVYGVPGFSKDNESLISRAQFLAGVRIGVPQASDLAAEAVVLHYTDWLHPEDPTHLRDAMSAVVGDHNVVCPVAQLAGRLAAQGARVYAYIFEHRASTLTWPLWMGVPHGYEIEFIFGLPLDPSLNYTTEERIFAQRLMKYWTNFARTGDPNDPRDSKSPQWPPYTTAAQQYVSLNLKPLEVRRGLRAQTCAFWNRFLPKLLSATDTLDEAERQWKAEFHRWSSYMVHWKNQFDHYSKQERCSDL
run-description: In vitro assay for choline esterase inhibition (Ellman method), acetylthiocholine substrate, mouse brain homogenate
Format: biochemical
applied-conditions: mouse brain homogenate, acetylthiocholine, absorbance at 415 nm; read-out: AChE inhibitory activity IC50
pIC50: −log10 of the molar value.

# smiles-representation, system-name, result
measured = [
    ("Cc1ccc(CCNC(=O)Oc2ccc3c(c2)CCN3Cc2ccccc2)cc1", "acetylcholine esterase (AChE) (Mus musculus)", "< 4.00"),
    ("COc1cc(CN2CCc3cc(OC(=O)Nc4ccc(C(C)C)cc4)ccc32)ccc1O", "acetylcholine esterase (AChE) (Mus musculus)", "< 4.00"),
]

The value of pIC50 measured for the compound CC(C)c1ccc(NC(=O)Oc2ccc3c(c2)C(C)(C)CN3Cc2ccccc2)cc1 turned out to be < 4.00

----------
system-name: butyrylcholine esterase (BuChE) (Mus musculus)
Construct: brain homogenate and serum of mouse were used as choline esterase enzyme sources; from tissue; host or cells: mouse serum
run-description: In vitro assay for choline esterase inhibition (Ellman method), butyrylthiocholine substrate, mouse serum
Assay type: biochemical
applied-conditions: selectivity for BuChE inhibition: IC50 (AchE)/IC50 (BuChE)
quantity-measured: Ratio AChE/BuChE

# compound, quantity-measured, result
data = [
    ("CCCCCCNC(=O)Oc1ccc2c(c1)CCN2Cc1ccccc1 [Example 17, 1-benzylindolin-5-yl n-hexylcarbamate]", "Ratio AChE/BuChE", 500),
]

The value of Ratio AChE/BuChE measured for the compound CN(CC1CCCCC1)C(=O)Oc1ccc2c(c1)CCN2Cc1ccccc1 [Example 214] turned out to be >2000

The value of Ratio AChE/BuChE measured for the compound CCC(COC)NC(=O)Oc1ccc2c(c1)CCN2Cc1ccccc1 (stereo not drawn) [Example 46] turned out to be >670
